Entry source: PubChem BioAssay

# Tested On: Torsin-1A (Homo sapiens)
# Measurement Description: torsin A binders from cell lysate, primary screen, small-molecule microarray, wild-type, 635/667 nm (AID 1149)
# Condition Details: COS7 hTOR1A-WT lysate, 635 nm fluorescence, higher = more signal
Entry flag: true if composite z-score reaches 0.6; false if it does not.

CC(C)C(=C=CC[C@H](O)c1cccc(OCCO)c1)C[C@H](O)COCc1ccccc1 : true
CCOC(=O)C[C@H]1[C@H](OC(=O)Cc2ccc3c(c2)OCO3)[C@@H](NC(=O)C2CCCCC2)c2cc(OCCCO)ccc2N1C(=O)Cc1ccc(OC)cc1 : false
Cc1ccc([C@H]2C(C(=O)O)=C[C@@H](C)N2S(=O)(=O)c2ccc(C)cc2)cc1 : false

Does composite z-score meet or surpass 0.6 for O=C(CS)NCCCCCCNC(=O)[C@@H]1C[C@@H]2C(=O)N3CCC[C@H]3C(=O)N2[C@@H]1c1ccc(O)cc1 ?
true

Does composite z-score meet or surpass 0.6 for O=C1O[C@H](c2ccccc2)[C@H](c2ccccc2)N2[C@H]1[C@@H](C(=O)N1CCN(c3ncccn3)CC1)[C@]1(C(=O)Nc3ccccc31)[C@H]2c1ccc(OCCO)cc1 ?
true

Does composite z-score meet or surpass 0.6 for O=C1OCCC=C[C@H]2OC34C=CCN(Cc5ccccc5)C(=O)[C@H]3N(CCCCCO)C(=O)[C@@H]4C12 (stereo not given in full) ?
true

Does composite z-score meet or surpass 0.6 for O=C1OCCC/C=C\[C@H]2OC34C=CCN(Cn5nnc6ccccc65)C(=O)[C@H]3N(CCCCCO)C(=O)[C@@H]4C12 (stereo not given in full) ?
false

Does composite z-score meet or surpass 0.6 for CC(C)NC(=O)[C@@H]1c2ccccc2C(=O)N(Cc2ccccc2Cl)[C@H]1c1ccc(CO)cc1 ?
false

Does composite z-score meet or surpass 0.6 for COC(=O)c1ccc(OC)c(/C=C\CC(OC(C)=O)c2ccccc2)c1 (stereo not given) ?
false

Does composite z-score meet or surpass 0.6 for CCCCC=C[C@@H](NC(=O)c1ccco1)c1ccccc1 ?
false

Does composite z-score meet or surpass 0.6 for COc1ccc(CCNC(=O)[C@@]2(Sc3ccc(C)cc3)CC(=O)N(Cc3ccccc3Cl)[C@@H]2c2ccc(CO)cc2I)cc1 ?
false

Does composite z-score meet or surpass 0.6 for COCCOC(=O)N1C(=O)[C@@]2(c3ccccc31)[C@H](C(=O)NC[C@H](O)c1ccccc1)[C@H]1C(=O)O[C@H](c3ccccc3)[C@H](c3ccccc3)N1[C@@H]2c1ccc(OCCO)cc1 ?
true

Does composite z-score meet or surpass 0.6 for CC(=O)NCCCC[C@@H]1NC(=O)[C@@H]2C[C@H](C(=O)NCCCCCCNC(=O)CS)[C@H](c3ccc(O)cc3)N2C1=O ?
true

---

So I've got a bunch of compounds here, and I need their z-score values.
# Measurement Description: cell viability in Huh7 cells, primary screen, cytotoxicity control for HCV replication inhibitor project, CellTiter-Glo luminescence, basal, 48 h (AID 1143);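 also: Huh7 hepatoma cells carrying a hepatitis C replication reporter with no stimulus; test concentration not given here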
# Condition Details: Huh7 HCV replicon, higher = more signal, called active from +8 up or from −8 down
Give bare numbers.

Worked set:
Cc1ccc(F)cc1S(=O)(=O)N[C@@H]1CCN(Cc2ccc(-c3ccccc3)cc2)C1 : -6.41
CCOC(=O)C[C@H]1[C@H](OC(=O)c2ccc(-c3ccccc3)cc2)[C@@H](NC(=O)c2ccc3ccccc3c2)c2cc(OCCCO)ccc2N1C(=O)Cc1ccc(OC)cc1 : 0.359
O=C1c2ccccc2[C@@]2(Cc3ccccc3N(Cc3ccccc3)C2=O)[C@H](c2ccc(CO)cc2)N1C1CCCCC1 : 0.608
C=CCC(OC(C)=O)[C@@H]1[C@@H](N(Cc2ccc(-c3cccc(C(F)(F)F)c3)o2)C(=O)c2ccc(C)cc2)c2cc(OCCCO)ccc2N1C(=O)c1ccc(-c2ccccc2)cc1 (stereo partly specified) : 0.224
C=C[C@H](C)[C@@H](O)c1ccc(O)c2ccccc12 : -0.276

List reported z-score for each of these compounds:
1. Cc1c(NC(=O)CC#N)c(=O)n(-c2ccccc2)n1C
2. COCCOC(=O)N1C(=O)[C@@]2(c3ccccc31)[C@H](c1ccc(O)cc1)N1[C@H](c3ccccc3)[C@H](c3ccccc3)OC(=O)[C@H]1[C@@H]2C(=O)N1CCc2cc(OC)c(OC)cc2C1
3. CN1C(=O)C2C=CC(C(O)c3ccccn3)N(Nc3ccccc3)C2C1=O (stereo unspecified)
4. CCCCCCc1nc(CCCc2cc3c(c(CCCCCC)n2)[Si](C(C)C)(C(C)C)OC3)cc2c1[Si](C(C)C)(C(C)C)OC2

-2.39
-3.64
0.901
-5.79

List reported z-score for each of these compounds:
1. CCCCC(O)C1C=CC2C(=O)N(C3CCCCC3)C(=O)C2N1Nc1ccc(OC)cc1 (stereo unspecified)
2. C=C(CCCC)/C(=C/C[C@H](OC(C)=O)c1ccc(CO)o1)c1cnc2ccccc2c1

1: -0.527; 2: 0.665
